assay: Quantitative High-Throughput drug screen in 47 multiple myeloma cell lines against the NCATS MIPE library collection: MM1S_ATCC cell viability assay (AID 1918980); settings: MM1S myeloma viability, CellTiter-Glo ATP luminescence, 48 h; series mostly up to 45.8 µM; further: nearly all actives have a fitted effect of over 45% in size
Records with an inconclusive call do not appear. Calls of active or inactive are those of the source. The call rests on the fitted dose curve; in most records, active means well fitted cell-killing curve with a large enough effect; inconclusive means small, poorly fitted or top-dose-only effect, or effect the other way; inactive means no such curve, though single readings can be large or run the other way.
Your answer must be one of the following: TRUE = active, FALSE = inactive

Each compound tested received a call. Report the one for COc1ccc(C(=O)c2c(C)n(CCN3CCOCC3)c3cc(I)ccc23)cc1 .
FALSE

Each compound tested received a call. Report the one for c1ccc2c(CN3CCNCC3)cccc2c1 .
FALSE

Each compound tested received a call. Report the one for CC(C)N[C@@H]1CCn2c(=O)[nH]c3cccc(c32)[C@@H]1O .
TRUE

Each compound tested received a call. Report the one for CC(=Cc1csc(C)n1)[C@@H]1C[C@H]2O[C@@H]2CCC[C@H](C)[C@@H](O)[C@@H](C)C(=O)C(C)(C)[C@@H](O)CC(=O)O1 .
FALSE

Each compound tested received a call. Report the one for COc1cccc2c1[C@]13CCN(CC4CC4)[C@H](C2)[C@]1(OC)CCC(=O)C3 .
FALSE

Each compound tested received a call. Report the one for O=C(NCC1CCOCC1)c1cnc(Nc2ccc(Cl)cc2Cl)nc1C(F)(F)F .
TRUE

Each compound tested received a call. Report the one for Cc1c(N)nc([C@H](CC(N)=O)NC[C@@H](N)C(N)=O)nc1C(=O)N[C@H](C(=O)N[C@@H](C)[C@H](O)[C@@H](C)C(=O)N[C@@H](C(=O)NCCc1nc(-c2nc(C(=O)NCCC[S+](C)C)cs2)cs1)[C@@H](C)O)C(O[C@H]1O[C@H](CO)[C@H](O)[C@@H](O)[C@@H]1O[C@H]1O[C@H](CO)[C@@H](O)[C@H](OC(N)=O)[C@H]1O)c1cnc[nH]1 (some centres not stated) .
TRUE

====

So I've got a bunch of compounds here, and I need their Potency values.
biological target: Glucocorticoid receptor (Homo sapiens) (UniProt P04150); assay: GR-GFP Redistribution (AID 450); conditions: U2OS GR-GFP nuclear translocation, laser cytometry, 2 h; further: potency means the concentration at half of the fitted maximal effect
Sequence (P04150 whole entry, looked up): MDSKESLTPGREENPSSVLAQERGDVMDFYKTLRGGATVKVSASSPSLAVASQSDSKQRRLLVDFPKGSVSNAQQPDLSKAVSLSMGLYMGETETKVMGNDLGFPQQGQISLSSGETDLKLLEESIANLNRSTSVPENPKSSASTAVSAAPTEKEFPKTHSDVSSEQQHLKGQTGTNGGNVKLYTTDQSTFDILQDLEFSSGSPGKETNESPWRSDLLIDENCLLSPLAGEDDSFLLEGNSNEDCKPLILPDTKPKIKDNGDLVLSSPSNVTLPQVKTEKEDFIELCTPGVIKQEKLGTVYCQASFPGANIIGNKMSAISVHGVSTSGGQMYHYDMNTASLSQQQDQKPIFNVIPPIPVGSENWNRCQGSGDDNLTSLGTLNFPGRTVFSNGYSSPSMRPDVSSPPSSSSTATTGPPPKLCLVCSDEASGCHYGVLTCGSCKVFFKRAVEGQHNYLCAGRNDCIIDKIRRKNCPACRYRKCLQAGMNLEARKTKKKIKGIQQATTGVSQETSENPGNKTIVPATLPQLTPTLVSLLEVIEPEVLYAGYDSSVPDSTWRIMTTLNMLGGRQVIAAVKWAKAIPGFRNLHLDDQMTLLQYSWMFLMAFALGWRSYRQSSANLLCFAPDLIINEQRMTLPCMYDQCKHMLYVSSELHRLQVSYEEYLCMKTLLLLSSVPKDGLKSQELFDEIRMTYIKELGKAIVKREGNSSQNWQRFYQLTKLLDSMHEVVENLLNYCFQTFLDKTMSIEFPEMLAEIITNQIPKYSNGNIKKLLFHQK
Calls of active or inactive are those of the source.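 The calls were made as follows: active = compounds whose dose series gives a full or clear partial fitted curve of increased nuclear translocation; inconclusive = weak partial curve or effect only at the top dose; inactive = no dose-dependent translocation response.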

For O=C(O)CC[N+](=O)[O-] , what is its reported Potency?
> 46 µM (inactive)

For Cn1cnc(CCN)c1 , what is its reported Potency?
> 46 µM (inactive)

For COC(=O)[C@@H](N)CCCN=C(N)N[N+](=O)[O-] , what is its reported Potency?
> 46 µM (inactive)

For NCCc1c[nH]c2ccccc12 , what is its reported Potency?
> 46 µM (inactive)

====

test: qHTS of pediatric cancer cell lines to identify multiple opportunities for drug repurposing: Confirmatory screen for A673 cells (AID 1347110); settings: A673 Ewing sarcoma cell viability; series mostly up to 45.9 µM;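 further: cells exposed to compound for 48 h before the viability read; nearly all actives have a fitted effect of over 65% in size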; further: potency means the concentration at half of the fitted maximal effect
Records with an inconclusive call do not appear. The source made the active and inactive calls. Calls come from the whole dose curve; as a rule, active = well fitted cell-killing curve with a large enough effect; inconclusive = small, poorly fitted or top-dose-only effect; inactive = flat fitted curve, though single readings scatter.
EXPERIMENTAL ENDPOINT: Potency

CC(=O)[O][Hg][c]1ccccc1 = 1040 nM (active)
CCC(=O)OC1CCC2C3CCC4=CC(=O)CC[C@@]4(C)C3CC[C@]12C (stereo partly drawn) = inactive
CCCN1CCO[C@@H]2c3cc(O)ccc3OC[C@@H]21 = inactive
CC(C)(C)C(O)C(Oc1ccc(Cl)cc1)n1cncn1 (stereo not drawn) = inactive
COc1cc2cc(c1Cl)N(C)C(=O)C[C@H](OC(=O)C(C)C)[C@]1(C)O[C@H]1[C@H](C)[C@@H]1C[C@@](O)(NC(=O)O1)[C@H](OC)C=CC=C(C)C2 = 1 nM (active)
CC=C(C)C(=O)O[C@H]1C(C)=C2[C@@H]3OC(=O)[C@@](C)(O)[C@@]3(O)[C@@H](OC(=O)CCC)C[C@](C)(OC(C)=O)[C@@H]2[C@@H]1OC(=O)CCCCCCC = inactive

For Cc1ccccc1-n1c(Cn2cnc3c(N)ncnc32)nc2cccc(C)c2c1=O , what is its reported Potency?
inactive

For CC(=Cc1csc(C)n1)[C@@H]1C[C@H]2O[C@]2(C)CCC[C@H](C)[C@@H](O)[C@@H](C)C(=O)C(C)(C)[C@@H](O)CC(=O)O1 , what is its reported Potency?
7.4 nM (active)

====

test: qHTS profiling of the MIPE4 collection as inhibitors of Plasmodium falciparum (3D7) proliferation (AID 743344);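 further: scaled between DMSO vehicle wells and 0.29 µM artemisinin as full inhibition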; conditions: P. falciparum 3D7 in erythrocytes, SYBR Green DNA fluorescence, 72 h; at 28.5 µM (top of the series)
So I've got a bunch of compounds here, and I need their parasite growth, % of DMSO control values.
Number in %, nothing else.

For C=CCON=C(C[C@H]1O[C@@H]2O[C@]3(C)CC[C@@H]4[C@H](C)CC[C@@H]([C@H]1C)[C@@]24OO3)[C@H]1O[C@@H]2O[C@]3(C)CC[C@H]4[C@H](C)CC[C@@H]([C@@H]1C)[C@@]24OO3 , what is its reported parasite growth, % of DMSO control?
21.6

For N=c1c2c(-c3ccccc3)c(-c3ccccc3)n(Cc3ccccc3)c2ncn1C1CCC(O)CC1 (centres undefined) , what is its reported parasite growth, % of DMSO control?
10.7

For O=C(O)CNC(=O)c1c(O)c2ccccc2n(Cc2ccccc2)c1=O , what is its reported parasite growth, % of DMSO control?
88

For C[C@]12CC[C@H](O)CC1=CC[C@H]1[C@H]3CCC(=O)[C@@]3(C)CC[C@@H]12 , what is its reported parasite growth, % of DMSO control?
72.2

====

experiment: qHTS Screen of the MIPE 4.0 Collection Against Ewings Sarcoma (TC32) (AID 1259256); details: TC32 Ewing sarcoma viability, CellTiter-Glo, 48 h; series mostly up to 45.8 µM; further: nearly all actives have a fitted effect of over 45% in size
Inconclusive results are not listed. Calls of active or inactive are those of the source. Calls come from the whole dose curve; as a rule, active = well fitted inhibition curve with a large enough effect; inconclusive = small, poorly fitted or top-dose-only effect; inactive = no such curve, though single readings can be large or run the other way.
Your answer must be one of the following: yes = active, no = inactive

Each compound tested received a call. Report the one for CN(C)[C@@H]1C(=O)C(C(N)=O)=C(O)[C@@]2(O)C(=O)C3=C(O)c4c(O)cccc4[C@@](C)(O)[C@H]3[C@H](O)[C@@H]12 .
no

Each compound tested received a call. Report the one for CC[C@@]1(O)C(=O)OCc2c1cc1n(c2=O)Cc2cc3ccccc3nc2-1 .
yes

Each compound tested received a call. Report the one for COc1ccc2c(c1)[C@]13CCCCC1C(C2)N(C)CC3 (some centres not stated) .
no

Each compound tested received a call. Report the one for C[C@]12CC[C@H]3[C@@H](CCC4=CC(=O)CC[C@@]43C)[C@H]1CC[C@H]2O .
no

Each compound tested received a call. Report the one for Cc1c(N)nc([C@H](CC(N)=O)NC[C@@H](N)C(N)=O)nc1C(=O)N[C@H](C(=O)N[C@@H](C)[C@H](O)[C@@H](C)C(=O)N[C@@H](C(=O)NCCc1nc(-c2nc(C(=O)NCCC[S+](C)C)cs2)cs1)[C@@H](C)O)C(O[C@H]1O[C@H](CO)[C@H](O)[C@@H](O)[C@@H]1O[C@H]1O[C@H](CO)[C@@H](O)[C@H](OC(N)=O)[C@H]1O)c1cnc[nH]1 (some centres not stated) .
yes

Each compound tested received a call. Report the one for COc1cccc2c1[C@]13CCN(CC4CC4)[C@H](C2)[C@]1(OC)CCC(=O)C3 .
no

Each compound tested received a call. Report the one for C[C@]12CC[C@H](O)CC1=CC[C@H]1[C@H]3CCC(=O)[C@@]3(C)CC[C@@H]12 .
yes

====

experiment: Quantitative High-Throughput drug screen in 47 multiple myeloma cell lines against the NCATS MIPE library collection: XG6_PLB cell viability assay (AID 1919865); settings: XG6 myeloma viability, CellTiter-Glo ATP luminescence, 48 h; series mostly up to 45.8 µM; further: nearly all actives have a fitted effect of over 40% in size; further: potency means the concentration at half of the fitted maximal effect
Records with an inconclusive call do not appear. Calls of active or inactive are those of the source. The call rests on the fitted dose curve; in most records, active means well fitted cell-killing curve with a large enough effect; inconclusive means small, poorly fitted or top-dose-only effect, or effect the other way; inactive means no such curve, though single readings can be large or run the other way.
EXPERIMENTAL ENDPOINT: Potency

COC1=C[C@@H]2[C@@H]3Cc4ccc(OC)c(O)c4[C@]2(CCN3C)CC1=O = 1180 nM (active)
COc1ccc2c(c1)[C@]13CCCCC1C(C2)N(C)CC3 (some centres undefined) = inactive
C[C@]12CC[C@H]3[C@@H](CCC4=CC(=O)CC[C@@]43C)[C@H]1CC[C@H]2O = inactive
CC=C(C)C(=O)O[C@H]1C(C)=C2[C@@H]3OC(=O)[C@@](C)(O)[C@@]3(O)[C@@H](OC(=O)CCC)C[C@](C)(OC(C)=O)[C@@H]2[C@@H]1OC(=O)CCCCCCC = 372 nM (active)

====

assay: Quantitative High-Throughput drug screen in 47 multiple myeloma cell lines against the NCATS MIPE library collection: Karpas25_ECACC cell viability assay (AID 1918968; further: nearly all actives have a fitted effect of over 35% in size; further: potency means the concentration at half of the fitted maximal effect); details: Karpas25 myeloma viability, CellTiter-Glo ATP, 48 h; series mostly up to 45.8 µM
Inconclusive results are not listed. Active and inactive are the calls of the source. Calls follow the shape of the dose curve; as a rule, active = well fitted cell-killing curve with a large enough effect; inconclusive = small, poorly fitted or top-dose-only effect, or effect the other way; inactive = no such curve, though single readings can be large or run the other way.
EXPERIMENTAL ENDPOINT: Potency

// known answers, use as guide
c1ccc2c(CN3CCNCC3)cccc2c1 = inactive
C[C@]12CC[C@@H]3[C@@H](CCC4=CC(=O)CC[C@@H]43)[C@@H]1CC[C@@H]2OC(=O)CCc1ccccc1 = inactive
CC[C@@]1(O)C(=O)OCc2c1cc1n(c2=O)Cc2cc3ccccc3nc2-1 = 83.3 nM (active)
C=C[C@@H]1CN2CCC1C[C@@H]2[C@@H](O)c1ccnc2ccccc12 (stereo not given in full) = 8330 nM (active)
COC1=C[C@@H]2[C@@H]3Cc4ccc(OC)c(O)c4[C@]2(CCN3C)CC1=O = 2960 nM (active)

For CSCC[C@@H](NC(=O)[C@@H](Cc1ccccc1)NC(=O)CNC(=O)CNC(=O)[C@@H](N)Cc1ccc(O)cc1)C(=O)O , what is its reported Potency?
inactive

For CCOP(=O)(OCC)C(C)NC(=O)N(CCCl)N=O (stereo not given) , what is its reported Potency?
inactive

For CC(C)(C)c1cc(C=C(C#N)C#N)cc(Br)c1O , what is its reported Potency?
3720 nM (active)

For CCNC(=O)C[C@@H]1N=C(c2ccc(Cl)cc2)c2cc(OC)ccc2-n2c(C)nnc21 , what is its reported Potency?
2090 nM (active)

For COc1ccc2c(c[n+](C)c3c4cc5c(cc4ccc23)OCO5)c1OC , what is its reported Potency?
7430 nM (active)

For NC1CC1c1ccccc1 (stereo not given) , what is its reported Potency?
inactive

For c1ccc(CCCN2CCN(CCOC(c3ccccc3)c3ccccc3)CC2)cc1 , what is its reported Potency?
10500 nM (active)

For C[C@@H]1CC[C@H]2[C@@H](C)C(=O)O[C@@H]3O[C@@]4(C)CC[C@H]1[C@]32OO4 , what is its reported Potency?
469 nM (active)

For COc1ccc(N(C(=O)Oc2c(C)cccc2C)c2ccnc(Nc3ccc(N4CCN(C)CC4)cc3)n2)c(OC)c1 , what is its reported Potency?
2640 nM (active)

For C1=C2CCCN[C@H]2[C@@H]2C[C@H]1[C@@H]1CCCCN1C2 , what is its reported Potency?
inactive

For CC(=Cc1csc(C)n1)[C@@H]1C[C@H]2O[C@]2(C)CCC[C@H](C)[C@@H](O)[C@@H](C)C(=O)C(C)(C)[C@@H](O)CC(=O)O1 , what is its reported Potency?
inactive

For CCCN1CCO[C@@H]2c3cc(O)ccc3OC[C@@H]21 , what is its reported Potency?
inactive

For C[C@H]([C@H](O)CCC(C)(C)O)[C@H]1CC[C@@]2(O)C3=CC(=O)[C@@H]4C[C@@H](O)[C@@H](O)C[C@]4(C)[C@@H]3CC[C@]12C , what is its reported Potency?
inactive

For COc1ccc2c(c1)CN(C)CC2c1ccc(Cl)c(Cl)c1 (stereo not given) , what is its reported Potency?
209 nM (active)

For CC(C)N(CCNC(=O)CN1CCCC1=O)C(C)C , what is its reported Potency?
inactive
